Reference source for all entries: patent US20140081017A1

- Test system: C. glabrata
- Assay explanation: Checkerboard FIC assay in combination with fluconazole (MIC alone and in combination, FICI)
- Type: cell-based, Candida glabrata
- Cond: C. glabrata; FICI calculated using a fluconazole MIC of 16 μg/mL
Result type: FICI of combination resulting in fluconazole MIC of: 4 ug/mL

Consider the reported FICI of combination resulting in fluconazole MIC of: 4 ug/mL for these compounds:
* O=C(Cc1ccc(CCCCc2ccc(C(=O)N3CCN(C/C=C/c4ccccc4)CC3)cc2)cc1)NO [Example 20] | 0.375
* CC(C)(C(=O)NO)c1ccc(CCCCc2ccccc2)cc1 [Example 56] | 0.625
* O=C(Cc1ccc(CCC/C(=N\O)c2ccccc2)cc1)NO [Example 27] | 0.375

(1) O=C(Cc1cnc(CCCCc2ccccc2)s1)NO [Example 2]
(2) CN(C)CCSCC(=O)Nc1cccc(CCCCc2ccc(CC(=O)NO)cc2)c1 [Example 44]
Given the listed records, identify the one among 1 and 2 with higher FICI of combination resulting in fluconazole MIC of: 4 ug/mL. Write down the label of the entry you select.
1

(P) O=C(Cc1ccc(CCCCc2ccccc2NC(=O)CO)cc1)NO [Example 46]
(Q) CN1CCN(CCNC(=O)Nc2cccc(CCCCc3ccc(CC(=O)NO)cc3)c2)CC1 [Example 49]
(R) CC(C(=O)NO)c1ccc(CCCCc2ccccc2)cc1 (stereo not drawn) [Example 55]
Task field, ranking: reported FICI of combination resulting in fluconazole MIC of: 4 ug/mL, descending order. # answer = labels listed in requested order
P, R, Q

(1) O=C(Cc1ccc(CCCCc2ccc(C(=O)N3CCN(CCn4ccnc4)CC3)cc2)cc1)NO [Example 21]
(2) O=C(Cc1ccc(CCCCc2ccc(O)cc2)cc1)NO [Example 15]
Problem: Given the entries 1 and 2 , determine which has the lower reported FICI of combination resulting in fluconazole MIC of: 4 ug/mL. Write down the label of the entry you select.
1

(P) O=C(Cc1csc(CCCCc2ccccc2)n1)NO [Example 1]
(Q) O=C(Cc1ccc(CCCCc2ccc(C(=O)NCCCn3ccnc3)cc2)cc1)NO [Example 22]
Problem: Given the entries P and Q , determine which has the lower reported FICI of combination resulting in fluconazole MIC of: 4 ug/mL. Write down the label of the entry you select.
Q
(Q: 0.250, P: 0.500)

(A) O=C(Cc1ccc(CCC(F)Cc2ccccc2)cc1)NO (stereo not drawn) [Example 60]
(B) O=C(Cc1ccc(C(F)CCCc2ccccc2)cc1)NO (stereo not drawn) [Example 61]
Problem: Given the entries A and B , determine which has the lower reported FICI of combination resulting in fluconazole MIC of: 4 ug/mL. Write down the label of the entry you select.
B

###

- Test system: C. glabrata
- Assay explanation: Checkerboard FIC assay in combination with fluconazole (MIC alone and in combination, FICI)
- Assay type: cell-based, Candida glabrata
- Cond: C. glabrata; FICI using a fluconazole MIC of 128 μg/mL
# FICI of combination resulting in fluconazole MIC of: 2 ug/mL (value in parenthesis) listing for each entry below

Item: CN1CCN(CCS(=O)(=O)Nc2ccc(CCCCc3ccc(CC(=O)NO)cc3)cc2)CC1 [Example 52] Test system: C. glabrata Read-out: FICI of combination resulting in fluconazole MIC of: 2 ug/mL (value in parenthesis) Value: ?
> 0.516

Item: CC(=O)Nc1ccccc1CCCCc1ccc(CC(=O)NO)cc1 [Example 45] Test system: C. glabrata Read-out: FICI of combination resulting in fluconazole MIC of: 2 ug/mL (value in parenthesis) Value: ?
> 1.016

Item: O=C(Cc1ccc(CCCCc2ccc(C(=O)O)cc2)cc1)NO [Example 14] Test system: C. glabrata Read-out: FICI of combination resulting in fluconazole MIC of: 2 ug/mL (value in parenthesis) Value: ?
> 0.516

###

- Test system: Candida albicans
- Assay explanation: Minimal Inhibitory Concentration (MIC) assay, broth microdilution per CLSI;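 also: two read times 24 hr and 48 hr of incubation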
- Format: cell-based
- Cond: Candida albicans; 48 hr reading (second value of cell 24 hr/48 hr); read-out: Minimum Inhibitory Concentrations against Yeast Isolates, Candida albicans
- Description: The in vitro activities of the inventive compounds (compound(s) herein) against fungi and/or yeasts were determined with isolates Candida albicans, Candida glabrata and Candida parapsilosis. […] Standardized inoculum of each organism was prepared per CLSI methods. […] After a short time to allow the heavy particles to settle out, a small quantity of the supernatant was dispensed into 0.85% saline and the suspension adjusted to equal a 0.5 McFarland turbidity standard. […]
Result type: MIC

Consider the reported MIC for these compounds:
* O=C(Cc1ccc(CCCCc2ccc(F)cc2F)cc1)NO | 0.5 µg/mL
* O=C(Cc1ccc(CCCCc2ccc(C(=O)NCCCn3ccnc3)cc2)cc1)NO | > 8 µg/mL
* O=C(Cc1ccc(CCCCc2ccc(O)cc2)cc1)NO | > 16 µg/mL

I would be grateful if you could share the reported MIC for "CN(C)CCCOc1ccc(CCCCc2ccc(CC(=O)NO)cc2)cc1" .
> 64 µg/mL

I would be grateful if you could share the reported MIC for "COc1ccc(CCCCc2ccc(CC(=O)NO)cc2)cc1" .
1 µg/mL

I would be grateful if you could share the reported MIC for CC(C(=O)NO)c1ccc(CCC(O)Cc2ccccc2)cc1 (stereo not drawn) .
> 64 µg/mL

###

- Test system: C. glabrata
- Assay explanation: Checkerboard FIC assay in combination with fluconazole (MIC alone and in combination, FICI)
- Format: cell-based, Candida glabrata
- Cond: Nakaseomyces glabratus; MIC of the example compound alone against C. glabrata in the checkerboard assay, approximately 48 hr; read-out: Methylgene MIC
Result type: MIC

* CN1CCC(C(=O)Nc2cccc(CCCCc3ccc(CC(=O)NO)cc3)c2)CC1 | > 16 mg/L
* O=C(Cc1ccc(CCCCc2ccc(CC(=O)NO)cc2)cc1)NO | > 4 mg/L

I would be grateful if you could share the reported MIC for "CN1CCN(CCS(=O)(=O)Nc2ccc(CCCCc3ccc(CC(=O)NO)cc3)cc2)CC1" .
> 16 mg/L

###

- Tested on: C. glabrata
- Assay explanation: Checkerboard FIC assay in combination with fluconazole (MIC alone and in combination, FICI)
- Assay type: cell-based, Candida glabrata
- Cond: concentration in combination as multiple of the compound's MIC alone; fluconazole MIC 4 ug/mL
Result type: Multiple of compound MIC to synergize fluconazole MIC to 4 ug/mL

• O=C(Cc1ccc(CCCCc2ccc(OCCCN3CCOCC3)cc2)cc1)NO [Example 16] = (¼x)
• O=C(Cc1ccc(C(F)CCCc2ccccc2)cc1)NO (centres unmarked) [Example 61] = (¼x)
• Nc1ccccc1CCCCc1ccc(CC(=O)NO)cc1 [Example 33] = (¼x)
• O=C(Cc1ccc(CCCCc2cccc(NC(=O)NCCN3CCOCC3)c2)cc1)NO [Example 50] = (⅛x)
• O=C(Cc1ccc(CCCC(F)(F)c2ccccc2)cc1)NO [Example 29] = (½x)

Item: O=C(Cc1ccc(CCCCc2cccc(NS(=O)(=O)CCN3CCOCC3)c2)cc1)NO [Example 53] Test system: C. glabrata Read-out: Multiple of compound MIC to synergize fluconazole MIC to 4 ug/mL Value: ?
(⅛x)

Item: COCCOCCOCCOCCC(=O)Nc1ccc(CCCCc2ccc(CC(=O)NO)cc2)cc1 [Example 37] Test system: C. glabrata Read-out: Multiple of compound MIC to synergize fluconazole MIC to 4 ug/mL Value: ?
(¼x)

Item: COCCOCCOCCNS(=O)(=O)c1ccc(CCCCc2ccc(CC(=O)NO)cc2)cc1 [Example 12] Test system: C. glabrata Read-out: Multiple of compound MIC to synergize fluconazole MIC to 4 ug/mL Value: ?
(⅛x)

###

- Test system: C. glabrata
- Assay explanation: Checkerboard FIC assay in combination with fluconazole (MIC alone and in combination, FICI)
- Assay type: cell-based, Candida glabrata
- Cond: Nakaseomyces glabratus; MIC of the example compound alone against C. glabrata in the checkerboard assay, approximately 48 hr; read-out: Methylgene MIC
Result type: MIC (µg/mL)

Consider the reported MIC for these compounds:
* O=C(Cc1ccc(CCCCc2ccc(OCCCN3CCOCC3)cc2)cc1)NO | 2
* COc1ccc(CCCCc2ccc(CC(=O)NO)cc2)cc1 | 0.5
* O=C(Cc1ccc(CCCCc2ccc(O)cc2)cc1)NO | 8
* COCCOCCOCC(=O)Nc1cccc(CCCCc2ccc(CC(=O)NO)cc2)c1 | 16
* O=C(Cc1ccc(CCCCc2cccc(NC(=O)CO)c2)cc1)NO | 16
* O=C(Cc1ccc(CCCCc2ccc(C(=O)N3CCN(C/C=C/c4ccccc4)CC3)cc2)cc1)NO | 1

(I) O=C(Cc1ccc(CCCCc2cccc(NC(=O)NCCN3CCOCC3)c2)cc1)NO
(II) O=C(Cc1ccc(CCCCc2ccc(F)cc2F)cc1)NO
Given the listed records, identify the one among I and II with higher MIC. Write down the label of the entry you select.
I
(I: 16 µg/mL, II: 0.5 µg/mL)

(A) CC(C(=O)NO)c1ccc(CCCCc2ccccc2)cc1 (centres unmarked)
(B) O=C(Cc1ccc(CCCCc2ccc(NS(=O)(=O)CCN3CCOCC3)cc2)cc1)NO
Problem: Given the entries A and B , determine which has the lower reported MIC. Write down the label of the entry you select.
A

(1) Nc1ccccc1CCCCc1ccc(CC(=O)NO)cc1
(2) Cc1ccc(CCCCc2ccc(CC(=O)NO)cc2)cc1
Problem: Given the entries 1 and 2 , determine which has the lower reported MIC. Write down the label of the entry you select.
2
